- Tested on: Vibrio cholerae
- Protocol summary: growth AUC normalised to DMSO control (fraction of control); higher = less growth inhibition, active = hit call of the paper
- Conditions used: 20 µM
Measure name: growth AUC normalised to DMSO control

Consider the reported growth AUC normalised to DMSO control for these compounds:
Compound | Measure name | Meas value
COC(c1ccccc1)(c1ccccc1)[C@H](Oc1nc(C)cc(C)n1)C(=O)O | growth AUC normalised to DMSO control | 1.01 (inactive)
O=C(Nc1ccc([N+](=O)[O-])cc1Cl)c1cc(Cl)ccc1O [Niclosamide] | growth AUC normalised to DMSO control | 0.0756 (active)

QUERY: Entry NS(=O)(=O)c1cc2c(cc1Cl)NCNS2(=O)=O [Hydrochlorothiazide] needs its growth AUC normalised to DMSO control filled in; supply it.
RESULT: 1.05 (inactive)
